Data provenance: ChEMBL document CHEMBL4834464

- METHOD SUMMARY: Kinetic solubility of compound […] using the charged aerosol detector (CAD) analysis
- Assay type: physicochemical
- SETTINGS: read-out: Kinetic_solubility
Measured solubility kinetic accompanies every entry in the list below.
Report as a plain number; the unit mg/mL is understood.

// returns reported solubility kinetic for input "CNC(=O)c1cc(C(=O)N[C@H]2[C@@H]3C[C@@H](O)C[C@@H]32)n([C@@H](C)c2cccc(Cl)c2)n1"
0.175

Fill in the blank: the reported solubility kinetic of "CCNC(=O)c1cc2c(-c3cc(C(C)(C)O)ccc3Oc3c(C)cc(F)cc3C)cn(C)c(=O)c2[nH]1" is ____.
0.026

* * *

- METHOD SUMMARY: Kinetic solubility of compound […] using the charged aerosol detector (CAD) analysis
- Type: physicochemical
- SETTINGS: read-out: Kinetic_solubility
solubility kinetic values, listed per item

CNC(=O)c1cc(C(=O)NC2CC2)c([C@@H](C)c2ccccc2)o1; ≥ 145 µg/mL

solubility kinetic lookup needed for "CNC(=O)c1cc(C(=O)NC2CC2)n([C@@H](C)c2ccccc2)n1" , thanks.
≥ 165 µg/mL

Fill in: solubility kinetic of "CNC(=O)c1cc(C(=O)N[C@H]2[C@@H]3C[C@H](O)C[C@@H]32)n([C@@H](C)c2cccc(Cl)c2)n1" is ___
≥ 168 µg/mL

Param item = "CCC(=O)c1c[nH]c(C(=O)NC)c1" ; retrieve measured solubility kinetic.
87 µg/mL

Give its solubility kinetic value. Item: "CNC(=O)c1cc(C(=O)N[C@H]2CC[C@H](O)CC2)c([C@@H](C)c2cccc(OC)c2)o1"
≥ 113 µg/mL

Suppose we examine the compound "CNC(=O)c1cc(C(=O)N[C@H]2CC[C@H](O)CC2)c([C@@H](C)c2ccccc2Cl)o1" ; what solubility kinetic value has been reported?
≥ 242 µg/mL

Which solubility kinetic is reported for this compound? "CC[C@@H](c1ccccc1)n1nc(C(=O)NC)cc1C(=O)N[C@H]1CC[C@H](O)CC1"
138 µg/mL

// lookup solubility kinetic for "CNC(=O)c1cc(C(=O)NC2CC2)n(Cc2ccccc2)n1"
≥ 155 µg/mL

Find the recorded solubility kinetic belonging to "CNC(=O)c1cc(C(=O)N[C@H]2CC[C@H](O)CC2)n([C@@H](C)c2cccc(C)c2)n1" and report it.
≥ 180 µg/mL

Find the recorded solubility kinetic belonging to "CNC(=O)c1cc(C(=O)N[C@H]2CC[C@H](O)CC2)n([C@@H](C)c2ccccc2Cl)n1" and report it.
≥ 182 µg/mL

Sample CC(=O)Nc1c(F)cc(C(=O)N[C@H]2CC[C@H](O)CC2)cc1O[C@@H](C)c1ccccc1 [GSK046] — what was its solubility kinetic?
≥ 159 µg/mL

Name the recorded solubility kinetic for "CNC(=O)c1cc(C(=O)N[C@H]2CC[C@H](O)CC2)c([C@@H](C)c2ccc(C)cc2)o1" .
≥ 245 µg/mL

Which solubility kinetic value is on record for "CNC(=O)c1cc(C(=O)N[C@H]2CC[C@H](O)CC2)n([C@@H](C)c2cccc(Cl)c2)n1" ?
≥ 143 µg/mL

Tell me the measured solubility kinetic of "CNC(=O)c1cc(C(=O)N[C@H]2CC[C@H](O)CC2)c([C@@H](C)c2cccc(F)c2)o1" , please.
≥ 63 µg/mL

Recorded solubility kinetic for "CNC(=O)c1cc(C(=O)N[C@H]2CC[C@H](OC)CC2)n([C@@H](CO)c2ccccc2)n1" , please?
≥ 164 µg/mL

So what does the record say about solubility kinetic for "CNC(=O)c1cc(C(=O)N[C@H]2CC[C@H](O)CC2)n([C@@H](C)c2ccc(C(F)(F)F)cc2)n1" ?
≥ 175 µg/mL

Need solubility kinetic, item "CNC(=O)c1cc(C(=O)NC2CC2)c([C@H](C)c2ccccc2)o1"
≥ 112 µg/mL

Would you kindly share the measured solubility kinetic for "CNC(=O)c1cc(C(=O)N[C@H]2CC[C@H](O)CC2)c([C@@H](C)c2cccc(C)c2)o1" ?
≥ 172 µg/mL

Any idea what its solubility kinetic is? The compound is "CNC(=O)c1cc(C(=O)N[C@H]2CC[C@H](O)CC2)n([C@@H](C)c2cccc(C(F)(F)F)c2)n1"
7 µg/mL

I'd like to know its solubility kinetic. The compound in question is "CNC(=O)c1cc(C(=O)N[C@H]2CC[C@H](O)CC2)c([C@@H](C)c2ccc(Cl)cc2)o1"
≥ 118 µg/mL

* * *

- METHOD SUMMARY: Intrinsic clearance in human hepatocytes measured per gram of tissue incubated for 120 mins by LC-MS/MS method
- Format: ADME, cell-based, Hepatocyte
- SETTINGS: 2 h
OBSERVABLE: CLint (mL/min/g)
Entry rule: numbers only, all in mL/min/g.

Could you share which CLint value was measured for "CNC(=O)c1cc(C(=O)N[C@H]2[C@@H]3C[C@H](O)C[C@@H]32)n([C@@H](C)c2cccc(Cl)c2)n1" ?
10.8

I am curious: what CLint value has been reported for "CNC(=O)c1cc(C(=O)NC2CC2)cn(Cc2ccccc2)c1=O" ?
3.1

What does the data say about its CLint? Entry: "CNC(=O)c1cc(C(=O)N[C@H]2[C@@H]3COC[C@@H]32)cc2c1O[C@H](CF)[C@H]2c1ccccc1"
3.6

* * *

- METHOD SUMMARY: Blood clearance in male Wistar Han rat at 0.5 mg/kg, iv and 3 mg/kg, po measured up to 7 hrs by LC-MS/MS analysis
- Type: ADME, organism-based
OBSERVABLE: clearance
Could you write the number and then its unit?

Which clearance is listed for "CNC(=O)c1cc(C(=O)N[C@H]2CC[C@H](O)CC2)n([C@@H](C)c2ccccc2)n1" ?
13 mL/min/kg

* * *

- METHOD SUMMARY: Intrinsic clearance in human hepatocytes measured per gram of tissue incubated for 120 mins by LC-MS/MS method
- Assay type: ADME, cell-based, Hepatocyte
- SETTINGS: 2 h
OBSERVABLE: CLint

Check out these entries, answers already filled in.
CNC(=O)c1cc(C(=O)N[C@H]2CC[C@H](O)CC2)n([C@@H](C)c2ccccc2)n1; < 0.5 mL/min/g
CNC(=O)c1cc(C(=O)N[C@H]2CC[C@H](O)CC2)c([C@@H](C)c2ccccc2)o1; < 0.5 mL/min/g
CNC(=O)c1cc(C(=O)N[C@H]2CC[C@H](OC)CC2)n([C@@H](C)c2ccccc2)n1; < 0.45 mL/min/g

Proceeding to the next compound to report its CLint.
Which measured CLint value corresponds to CC(=O)Nc1c(F)cc(C(=O)N[C@H]2CC[C@H](O)CC2)cc1O[C@@H](C)c1ccccc1 [GSK046] ?
2.8 mL/min/g

* * *

- METHOD SUMMARY: Volume of distribution at steady state in male Wistar Han rat at 1 mg/kg, iv and 3 mg/kg, po measured up to 7 hrs by LC-MS/MS analysis
- Format: ADME, organism-based
- SETTINGS: in vivo, read-out: Vdss
OBSERVABLE: Vd

# annotated cases, reported Vd shown
CNC(=O)c1cc(C(=O)N[C@H]2[C@@H]3COC[C@@H]32)c([C@@H](C)c2ccccc2)o1; 2.7 L/kg
CNC(=O)c1cc(C(=O)N[C@H]2CC[C@H](O)CC2)c([C@@H](C)c2ccccc2)o1; 2.1 L/kg

Which Vd is reported for this compound? "CNC(=O)c1cc(C(=O)N[C@H]2[C@@H]3C[C@@H](O)C[C@@H]32)n([C@@H](C)c2cccc(Cl)c2)n1"
2.6 L/kg

Which Vd is listed for "CNC(=O)c1cc(C(=O)N[C@H]2[C@@H]3C[C@@H](O)C[C@@H]32)c([C@@H](C)c2ccccc2)o1" ?
2.3 L/kg

Give the measured Vd of "CNC(=O)c1cc(C(=O)N[C@H]2CC[C@H](OC)CC2)n([C@@H](C)c2ccccc2)n1" .
2.4 L/kg

Requested read-out: Vd. Entry: "CNC(=O)c1cc(C(=O)N[C@H]2CC[C@H](O)CC2)c([C@@H](C)c2cccc(Cl)c2)o1"
2.7 L/kg

* * *

- METHOD SUMMARY: Permeability of compound by AMP assay
- Format: ADME
- SETTINGS: not told; read-out: permeability
Mark 1.0 only when Papp stays strictly below 30 ×10⁻⁶ cm/s. Values equal to the cut-off are 0.0.

CCC(=O)c1c[nH]c(C(=O)NC)c1; 1.0

Read the next record carefully.
Please state whether Papp is below 30 ×10⁻⁶ cm/s for "CNC(=O)c1cc(C(=O)NCCO)c([C@@H](C)c2ccccc2)o1"
1.0

* * *

- METHOD SUMMARY: Solubility of the compound by CLND assay
- Format: physicochemical
OBSERVABLE: solubility kinetic

CNC(=O)c1cc(C(=O)NCCO)n([C@@H](C)c2ccccc2)n1; ≥ 139 µg/mL
CNC(=O)c1cc(C(=O)N[C@H]2CC[C@H](OC)CC2)n([C@@H](C)c2ccccc2)n1; ≥ 161 µg/mL
CNC(=O)c1cc(C(=O)NCCO)c([C@@H](C)c2ccccc2)o1; ≥ 132 µg/mL
CNC(=O)c1cc(C(=O)NC)n([C@@H](C)c2ccccc2)n1; ≥ 88 µg/mL
CCCNC(=O)c1cc(C(=O)NC)nn1[C@@H](C)c1ccccc1; ≥ 132 µg/mL

Fill in: solubility kinetic of "CCNC(=O)c1cc(C(=O)NC)nn1[C@@H](C)c1ccccc1" is ___
≥ 137 µg/mL

Tell me the measured solubility kinetic of "CNC(=O)c1cc(C(=O)N[C@H]2[C@@H]3C[C@@H](O)C[C@@H]32)c([C@@H](C)c2ccccc2)o1" , please.
≥ 172 µg/mL
